- System: MCF7
- Assay method text: NCI tumour cell line growth inhibition, 48 h
Where a name gives a salt, the structure may show the parent alone. Active and inactive are the calls of the source. Cut-off read from the data, not from the text of the source: active = GI50 up to about 1.1 µM and inactive = higher.
Entry note: the call must match one of 1 (yes) for active, 0 (no) for inactive

// below: answered compounds
Compound: COc1ccc(C2CC(=O)CC(c3ccc(OC)cc3)C23C(=O)NC(=S)NC3=O)cc1 (centres undefined)
Class assignment: 0 (no)
--
Compound: C=C1c2[nH]c3ccccc3c2C2C(CC)C1CCN2C (centres undefined)
Class assignment: 0 (no)
--
Compound: Oc1ccc(C(O)C2CCCCN2)cc1O (centres undefined) [RIMITEROL HYDROBROMIDE]
Class assignment: 0 (no)

From here, focus on the item given below.
Test call for this compound, please: O=C(OCc1ccccc1[N+](=O)[O-])N1c2ccccc2[C@@]23O[C@]24CCC[C@H]3C#C/C=C\C#C[C@H]14
1 (yes)

Measured values drawn from ChEMBL document CHEMBL1201862 for this set.
